# assay: Solubility of the compound
# Assay type: physicochemical
observable: solubility (µg/mL)
Write the number in µg/mL without appending the unit.

input: What does the record list as solubility for `Cc1c([C@@H](C)OC(=O)Nc2cccc(F)c2)sc2nncn12` ?
output: 31

input: // query: `Cc1c([C@@H](C)OC(=O)Nc2ccccc2)sc2ncnn12`
output: 166

* * *

# assay: Cmax in rat brain at 1.0 mg/kg, po
# Format: ADME, organism-based
# Design: dose 1 mg/kg, route oral
observable: Cmax
Give the value; after it, write the unit.

input: What does the record list as Cmax for `Cc1c([C@@H](C)OC(=O)Nc2ccccc2)sc2ncnn12` ?
output: 250 nM
